- measurementTarget: Transient receptor potential cation channel subfamily V member 1 (Homo sapiens) (UniProt Q8NER1)
- Sequence (Q8NER1 whole entry, looked up): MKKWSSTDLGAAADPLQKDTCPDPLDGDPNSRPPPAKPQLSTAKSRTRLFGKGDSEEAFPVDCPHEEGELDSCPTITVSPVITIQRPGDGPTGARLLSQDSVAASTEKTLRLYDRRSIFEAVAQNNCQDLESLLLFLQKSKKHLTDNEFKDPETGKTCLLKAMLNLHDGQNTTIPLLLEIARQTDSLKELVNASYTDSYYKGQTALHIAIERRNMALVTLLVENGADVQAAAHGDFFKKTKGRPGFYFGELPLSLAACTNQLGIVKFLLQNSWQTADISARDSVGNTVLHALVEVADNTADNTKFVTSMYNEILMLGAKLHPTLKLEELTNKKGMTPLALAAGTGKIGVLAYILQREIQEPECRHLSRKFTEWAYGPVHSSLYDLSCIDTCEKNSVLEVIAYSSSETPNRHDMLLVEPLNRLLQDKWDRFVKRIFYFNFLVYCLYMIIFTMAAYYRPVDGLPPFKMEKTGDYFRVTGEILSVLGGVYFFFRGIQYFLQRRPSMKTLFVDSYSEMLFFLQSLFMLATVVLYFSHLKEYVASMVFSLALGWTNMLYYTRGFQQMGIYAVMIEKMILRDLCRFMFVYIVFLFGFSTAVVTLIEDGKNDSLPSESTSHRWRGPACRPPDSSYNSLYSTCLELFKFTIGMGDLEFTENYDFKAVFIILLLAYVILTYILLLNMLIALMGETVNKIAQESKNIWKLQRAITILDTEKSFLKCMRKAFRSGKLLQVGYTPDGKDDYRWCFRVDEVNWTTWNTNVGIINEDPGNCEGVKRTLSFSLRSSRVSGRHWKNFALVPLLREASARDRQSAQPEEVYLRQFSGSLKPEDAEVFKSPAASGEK
- assayText: HTS Assay for Compounds that Act as Agonists of the Vanilloid Receptor 1; also: 0% is about no effect
- experimentalParameters: TRPV1-expressing cells, Fluo-8 calcium influx, agonist mode; at 8.33 µM
Hit rate of the full screen: of about 320,000 compounds, about 620 (0.19%) were called active. Another 6% or so got no clear call; they are omitted. Rule as the data show it: active = activation above about 80%; inconclusive = between about 30% and that limit; inactive = weaker than that. The entries come from a sample that favours actives as a whole.
Field 'call' accepts 1.0 for active, 0.0 for inactive

What is the recorded call for this molecule in the test? CC(C)(C)NC(=O)NCc1ccco1
0.0

What is the recorded call for this molecule in the test? CC(C)(C)c1ccc(NC(=O)NCc2ccco2)cc1
1.0

What is the recorded call for this molecule in the test? Cc1nc(-c2ccc(F)cc2)c(CC(=O)N(C)CC(=O)Nc2c(C)cccc2C)s1
0.0

What is the recorded call for this molecule in the test? CCCN(CC(=O)Nc1ccccc1C)C(=O)c1ccc2[nH]c3c(c2c1)CC(C)CC3 (configuration not stated)
0.0

What is the recorded call for this molecule in the test? CC(OC(=O)Cc1ccc(F)cc1)C(=O)N1CCc2ccccc21 (configuration not stated)
0.0

What is the recorded call for this molecule in the test? O=C(NCC(=O)N1CCCCCCC1)c1ccccc1Cl
0.0

What is the recorded call for this molecule in the test? CC(C)(C)c1ccc(C(=O)NCCC(=O)NCc2ccco2)cc1
0.0

What is the recorded call for this molecule in the test? O=C(NCCc1ccc(F)cc1)c1ccc(S(=O)(=O)N2CCCCC2)cc1
0.0

What is the recorded call for this molecule in the test? COc1ccc(NC(=O)Cn2cc(C(=O)c3ccncc3)c(=O)c3cc(C)ccc32)cc1Cl
0.0

What is the recorded call for this molecule in the test? Cc1ccc(S(=O)(=O)NCCC(=O)NCc2ccc(Cl)cc2)cc1C
0.0

What is the recorded call for this molecule in the test? COc1ccc(C)cc1NC(=O)CN1c2cccc3cccc(c23)S1(=O)=O
0.0

What is the recorded call for this molecule in the test? COc1ccc(S(=O)(=O)N2CCOCC2)cc1NC(=O)CSc1cc(C)ccc1C
0.0

What is the recorded call for this molecule in the test? O=C(CN1CCc2ccccc2C1)Nc1cccc(S(=O)(=O)N2CCOCC2)c1
0.0

What is the recorded call for this molecule in the test? COc1cc2ccccc2cc1C(=O)N1CCOCC1
0.0

What is the recorded call for this molecule in the test? CN(c1ccccc1)S(=O)(=O)c1cccc(NC(=O)Cc2ccc(Cl)cc2)c1
0.0

What is the recorded call for this molecule in the test? Cc1ccc(S(=O)(=O)N2CC(O)C[C@H]2C(=O)OCC(=O)Nc2ccc(N3CCOCC3)cc2)cc1C (some centres not stated)
0.0

What is the recorded call for this molecule in the test? O=C(CSc1ncnc2sccc12)N1CCN(C(=O)c2cccs2)CC1
0.0

What is the recorded call for this molecule in the test? COc1cccc(C(=O)Nc2nc3ccc(S(C)(=O)=O)cc3s2)c1
0.0

What is the recorded call for this molecule in the test? Cc1ncoc1C(=O)NCCC(c1ccccc1)c1ccccc1
1.0

What is the recorded call for this molecule in the test? CN1CCN(S(=O)(=O)c2ccc(N3CCN(c4ccccc4O)CC3)c([N+](=O)[O-])c2)CC1
0.0

What is the recorded call for this molecule in the test? Cc1ccc(S(=O)(=O)NCCC(c2ccccc2)c2ccccc2)cc1C(=O)O
0.0

What is the recorded call for this molecule in the test? O=C(CSC(=S)N1CCOCC1)c1cc(Br)cc(Br)c1O
0.0
